Entries and their pKi
measurement.target: Substance-P receptor (Homo sapiens)
Sequence (P25103 whole entry): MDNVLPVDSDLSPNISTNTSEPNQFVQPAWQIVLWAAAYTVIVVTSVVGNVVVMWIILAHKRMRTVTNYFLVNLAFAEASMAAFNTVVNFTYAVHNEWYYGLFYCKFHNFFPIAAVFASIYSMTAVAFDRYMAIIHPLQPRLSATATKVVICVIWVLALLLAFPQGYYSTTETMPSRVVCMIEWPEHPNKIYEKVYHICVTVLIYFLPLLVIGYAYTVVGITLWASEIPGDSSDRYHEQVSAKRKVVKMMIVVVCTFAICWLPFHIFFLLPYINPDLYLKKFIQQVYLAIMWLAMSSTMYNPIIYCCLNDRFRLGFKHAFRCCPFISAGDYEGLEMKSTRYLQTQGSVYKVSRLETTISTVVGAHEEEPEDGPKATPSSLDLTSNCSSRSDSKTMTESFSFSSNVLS
experimental.details: Displacement of [3H]-Sar-Met Substance P from recombinant human NK1 receptor in CHO cells
FYI, pKi means -log10 of a concentration in mol per litre.

Guide cases for pKi, answers given:
1. C[C@@H](OC[C@]1(c2ccccc2)CNC(=O)N1)c1cc(C(F)(F)F)cc(C(F)(F)F)c1 : 7.39
2. O=C1NC(COCc2cc(C(F)(F)F)cc(C(F)(F)F)c2)(c2ccc(F)cc2)CN1C1CCNCC1 (stereo not given) : 9.05
3. C[C@@H](OC[C@@]1(c2ccc(F)cc2)CN(C)C(=O)N1)c1cc(C(F)(F)F)cc(C(F)(F)F)c1 : 8.44
4. C[C@@H](OC[C@@]1(c2ccc(F)cc2)CNC(=O)N1)c1cc(C(F)(F)F)cc(C(F)(F)F)c1 : 8.82

Now for another entry.
Query block: Would you mind telling me what pKi value was observed for O=C1NCC(COCc2cc(C(F)(F)F)cc(C(F)(F)F)c2)(c2ccc(F)cc2)N1 (stereo not given) ?
Result block: 8.35
